Target: T1, EsCas13d, nuclease-dead (Eubacterium siraeum, UniProt B0MS50, R295A;H300A;R849A;H854A)
T1 sequence: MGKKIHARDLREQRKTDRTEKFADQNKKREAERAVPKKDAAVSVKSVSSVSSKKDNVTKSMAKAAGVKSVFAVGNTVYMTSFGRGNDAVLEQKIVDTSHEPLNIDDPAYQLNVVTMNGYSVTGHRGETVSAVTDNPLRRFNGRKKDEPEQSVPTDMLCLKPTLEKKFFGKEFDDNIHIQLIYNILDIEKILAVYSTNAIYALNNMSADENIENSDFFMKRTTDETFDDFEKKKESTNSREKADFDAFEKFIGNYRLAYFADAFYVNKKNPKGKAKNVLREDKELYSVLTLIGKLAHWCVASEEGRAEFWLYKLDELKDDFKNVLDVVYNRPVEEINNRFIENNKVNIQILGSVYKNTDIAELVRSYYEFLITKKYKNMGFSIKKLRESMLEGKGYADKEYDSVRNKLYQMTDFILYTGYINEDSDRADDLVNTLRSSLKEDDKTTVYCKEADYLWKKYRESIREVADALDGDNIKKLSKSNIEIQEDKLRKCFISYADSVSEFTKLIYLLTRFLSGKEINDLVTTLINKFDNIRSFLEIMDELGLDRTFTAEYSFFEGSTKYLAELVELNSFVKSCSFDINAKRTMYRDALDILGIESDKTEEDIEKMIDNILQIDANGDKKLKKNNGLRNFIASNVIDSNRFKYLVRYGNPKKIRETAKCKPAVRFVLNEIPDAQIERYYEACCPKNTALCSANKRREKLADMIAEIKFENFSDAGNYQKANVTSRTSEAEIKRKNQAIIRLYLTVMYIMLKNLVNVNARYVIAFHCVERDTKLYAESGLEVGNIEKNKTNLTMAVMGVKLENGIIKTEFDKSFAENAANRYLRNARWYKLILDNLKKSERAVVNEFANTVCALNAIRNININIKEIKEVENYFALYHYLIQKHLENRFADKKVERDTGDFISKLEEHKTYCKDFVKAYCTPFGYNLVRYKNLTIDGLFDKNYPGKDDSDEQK
Experiment: crRNA (strand 1, pre-loaded); Mg2+; 40 mM Tris-HCl pH 7.5, 150 mM NaCl, 6 mM MgCl2, 1 mM DTT, 0.1% Tween-20, 0.2 mg/ml BSA; 25 C; 10 min per concentration, then washed
Conditions: tags: His6-TwinStrep-SUMO cleaved; N-terminal SNAP kept (SNAP-Surface 488); label: 3' end held by stalled T7 RNA polymerase
QUANTITY NAME: Kd (nM)

BINDER	QUANTITY NAME	READOUT NUMBER
target 2 MT 5'PFS GGC 3'PFS UGU (mixed) RNA 1: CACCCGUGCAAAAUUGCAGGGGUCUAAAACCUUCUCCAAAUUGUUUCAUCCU RNA 2: GGGAAUGGAUCCACAUCUACGAAUUCGGCAGGAUGAAACAAUUUGGAGAAGUGUAGAUCGGAAGAGCACACGU	Kd	27.8
target 1 MT 5'PFS GGC 3'PFS CGC (mixed) RNA 1: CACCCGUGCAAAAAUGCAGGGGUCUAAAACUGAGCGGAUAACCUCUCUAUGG RNA 2: GGGAAUGGAUCCACAUCUACGAAUUCGGCCCAUAGAGAGGUUAUCCGCUCACGCAGAUCGGAAGAGCACACGU	Kd	15.5
target 1 U3A,C6U (mixed) RNA 1: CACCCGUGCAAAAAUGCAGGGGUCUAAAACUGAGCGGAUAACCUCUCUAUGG RNA 2: GGGAAUGGAUCCACAUCUACGAAUUCGUACCAUAGAGAGGUUAUCUGCACACCGAGAUCGGAAGAGCACACGU	Kd	5.27
target 2 MT 5'PFS GAA 3'PFS CUC (mixed) RNA 1: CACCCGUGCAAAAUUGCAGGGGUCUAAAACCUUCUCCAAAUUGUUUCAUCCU RNA 2: GGGAAUGGAUCCACAUCUACGAAUUCGAAAGGAUGAAACAAUUUGGAGAAGCUCAGAUCGGAAGAGCACACGU	Kd	16
target 1 insA 3' of 17,insU 3' of 9 (mixed) RNA 1: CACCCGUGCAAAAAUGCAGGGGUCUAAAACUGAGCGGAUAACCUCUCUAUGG RNA 2: GGGAAUGGAUCCACAUCUACGAAUUCGUACCAUAGAAGAGGUUAUUCCGCUCACCGAGAUCGGAAGAGCACACGU	Kd	18.6
target 2 MT 5'PFS GGA 3'PFS UUA (mixed) RNA 1: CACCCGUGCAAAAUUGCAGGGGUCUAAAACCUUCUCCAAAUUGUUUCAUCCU RNA 2: GGGAAUGGAUCCACAUCUACGAAUUCGGAAGGAUGAAACAAUUUGGAGAAGUUAAGAUCGGAAGAGCACACGU	Kd	18.1
target 1 MT 5'PFS GUG 3'PFS UCG (mixed) RNA 1: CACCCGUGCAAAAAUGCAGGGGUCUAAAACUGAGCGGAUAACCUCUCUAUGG RNA 2: GGGAAUGGAUCCACAUCUACGAAUUCGUGCCAUAGAGAGGUUAUCCGCUCAUCGAGAUCGGAAGAGCACACGU	Kd	10.5
target 2 MT 5'PFS UUG 3'PFS AUA (mixed) RNA 1: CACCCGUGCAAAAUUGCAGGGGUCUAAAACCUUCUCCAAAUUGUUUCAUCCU RNA 2: GGGAAUGGAUCCACAUCUACGAAUUCUUGAGGAUGAAACAAUUUGGAGAAGAUAAGAUCGGAAGAGCACACGU	Kd	9.4
target 1 insG 3' of 2,insG 3' of 2 (mixed) RNA 1: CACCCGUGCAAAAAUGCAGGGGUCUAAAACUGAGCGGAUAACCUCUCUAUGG RNA 2: GGGAAUGGAUCCACAUCUACGAAUUCGUACCAUAGAGAGGUUAUCCGCUCGGACCGAGAUCGGAAGAGCACACGU	Kd	7.5
target 2 MT 5'PFS ACC 3'PFS ACG (mixed) RNA 1: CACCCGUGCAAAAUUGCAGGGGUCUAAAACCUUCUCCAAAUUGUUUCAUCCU RNA 2: GGGAAUGGAUCCACAUCUACGAAUUCACCAGGAUGAAACAAUUUGGAGAAGACGAGAUCGGAAGAGCACACGU	Kd	4.3

Every entry's value here was drawn from paper PMC10786891.
